Numbers sourced from ChEMBL document CHEMBL1121763.

# system.name: Cyclooxygenase (Bos taurus)
Please provide measured log10 of IC50 for the entries that follow.
The base-10 logarithm of IC50, taken with IC50 in nM, is what appears here.

Example entries and their recorded answers appear below.
[[record]]
molecule = "O=C1Cc2cc(Cl)c(C3CCCCC3)c(Cl)c2O1"
measurement_name = "log10 of IC50"
readout_number = 3.00

[[record]]
molecule = "CC1C(=O)Oc2cc(C3CCCCC3)c(Cl)cc21 (stereo not drawn)"
measurement_name = "log10 of IC50"
readout_number = 1.85

[[record]]
molecule = "CC1C(=O)Oc2cc(-c3ccccc3)ccc21 (stereo not drawn)"
measurement_name = "log10 of IC50"
readout_number = 2.70

[[record]]
molecule = "O=C1Cc2cc(Br)c(C3CCCCC3)cc2O1"
measurement_name = "log10 of IC50"
readout_number = 1.48

[[record]]
molecule = "O=C1Cc2cc(Cl)c(C3CCCCC3)cc2O1"
measurement_name = "log10 of IC50"
readout_number = 1.70


Please state, for each entry, its recorded log10 of IC50.
1. Cc1cc2c(cc1C1CCCCC1)OC(=O)C2
2. O=C1Cc2cccc(C3CCCCC3)c2O1
3. CC(C)Cc1ccc2c(c1)OC(=O)C2

2.00
5.00
3.48

###

# system.name: Cyclooxygenase (Bos taurus)
Please provide measured IC50 for the entries that follow.
Numbers only, in µM.

[[record]]
compound = "CC1C(=O)Oc2cc(C3CCCCC3)ccc21 (centres undefined)"
reading_unit = "µM"
readout_number = 0.4

[[record]]
compound = "O=C1Cc2cc(C3CCCCC3)ccc2O1"
reading_unit = "µM"
readout_number = 10


Please state, for each entry, its recorded IC50.
1. O=C1Cc2cc(Cl)c(-c3ccccc3)cc2O1
2. O=C1Cc2ccc(-c3ccccc3)cc2O1
3. O=C1Cc2ccc(C3CCCCC3)cc2O1
4. COc1cc2c(cc1-c1ccccc1)OC(=O)C2
5. O=C1Cc2cc([N+](=O)[O-])c(C3CCCCC3)cc2O1
6. CCC1C(=O)Oc2cc(-c3ccccc3)ccc21 (centres undefined)
7. O=C1Cc2ccc(C3CCCCC3)c(Br)c2O1
8. CC1C(=O)Oc2cc(-c3ccccc3)c(Cl)cc21 (centres undefined)

1. 0.08
2. 0.7
3. 0.8
4. 10
5. 0.5
6. 50
7. 3
8. 0.08

###

Please provide measured IC50 for the entries that follow.
# system.name: Cyclooxygenase (Bos taurus)
Answers are plain numbers, in µM.

Example entries and their recorded answers appear below.
[[record]]
compound = "Cc1cc2c(cc1C1CCCCC1)OC(=O)C2C (centres undefined)"
readout_number = 0.1

[[record]]
compound = "O=C1Cc2cc(O)c(-c3ccccc3)cc2O1"
readout_number = 50


// moving on: another record for IC50
Could you tell me which IC50 is on file for `O=C1Cc2ccc(C3CCCC3)cc2O1` ?
10
